- ASSAYED_TARGET: T1, recombinant human CD33 protein (Sino Biologicals) (human, UniProt P20138 18-259)
- T1 construct: Bought protein; also called recombinant CD33
- T1 sequence (P20138 18-259 limits assumed): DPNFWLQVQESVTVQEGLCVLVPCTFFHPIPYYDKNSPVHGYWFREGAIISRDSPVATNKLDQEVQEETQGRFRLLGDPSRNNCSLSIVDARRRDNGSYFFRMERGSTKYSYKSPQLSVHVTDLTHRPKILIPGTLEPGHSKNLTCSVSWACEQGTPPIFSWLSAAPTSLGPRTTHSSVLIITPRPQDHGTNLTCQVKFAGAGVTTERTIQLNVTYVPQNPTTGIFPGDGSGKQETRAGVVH
- ASSAY_NAME: ELISA, plate coated with recombinant CD33
Property: pEC50; scope: individual binders
// pEC50 is dimensionless: -log10 of concentration (M)

anti-CD33 antibody 6C7H34 (antibody, V domains shown, VH/VL only) VH: EVQLVESGGGLVQPGGSLRLSCAASGSTFSEYDMLWVRQAPGKGLEWVGEIRLKSNNYVTNYAASVKGRFTISRDDSKNSVYLQMNSLKTEDTGVYYCTRAGYYVPFAYWGQGTLVTVSS VL: QPMLTQSPSASASLGASVKLTCTLSSQHSTYTIEWYQQQPGKGPRYLMELKKEGSHSTGDGIPDRFSGSSSGAERYLTISSLQSEDEADYYCGVGLTIKEQFVYVFGGGTKLTVL; 9.77

Looking up anti-CD33 antibody 6C7H49 (antibody, V domains shown, VH/VL only) VH: EVQLVESGGGLVQPGGSLRLSCAASGFTFSEYDMLWVRQAPGKGLEWVGEIRLKSNNYVTNYAASVKGRFTISRDDSKNSVYLQMNSLKTEDTGVYYCTRAGYYVPFAYWGQGTLVTVSS VL: QPVLTQSPSASASLGASVKLTCTLSSQHSTYTIEWYQQQPEKGPRYLMELKKEGSHSTGDGIPDRFSGSSSGAERYLTISSLQSEDEADYYCGVGVTIKEQFVYVFGGGTKLTVL , I see its pEC50 listed as 9.52

Kindly note the recorded pEC50 for anti-CD33 antibody 6C7H43 (antibody, V domains shown, VH/VL only) VH: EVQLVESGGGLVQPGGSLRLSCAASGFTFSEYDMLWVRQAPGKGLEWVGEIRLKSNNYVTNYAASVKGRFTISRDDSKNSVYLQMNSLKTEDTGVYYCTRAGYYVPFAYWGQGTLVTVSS VL: QLMLTQSPSASASLGASVKLTCTLSSQHSTYTIEWYQQQPGKGPRYLMELKKEGSHSTGDGIPDRFSGSSSGAERYLTISSLQSEDEADYYCGVGHTIKEQFVYEFGGGTKLTVL , which is 9.77
